Reference for the values: patent EP2272817A1

target: recombinant human PAI-1 (Homo sapiens, UniProt P05121); experiment: biochemical; details: read-out: Inhibition Rate of PAI Activity (%)
Sequence (P05121 24-402): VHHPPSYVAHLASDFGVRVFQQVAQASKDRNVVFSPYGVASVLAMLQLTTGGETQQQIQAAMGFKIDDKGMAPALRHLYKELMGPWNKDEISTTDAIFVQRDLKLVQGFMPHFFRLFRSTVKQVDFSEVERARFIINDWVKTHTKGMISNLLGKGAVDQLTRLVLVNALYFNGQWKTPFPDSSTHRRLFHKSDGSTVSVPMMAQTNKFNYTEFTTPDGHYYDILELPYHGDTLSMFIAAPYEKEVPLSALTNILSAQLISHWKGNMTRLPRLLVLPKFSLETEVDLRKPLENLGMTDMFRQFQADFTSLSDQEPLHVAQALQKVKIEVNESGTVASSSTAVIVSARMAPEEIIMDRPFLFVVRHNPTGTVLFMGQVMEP
Rule: 1.0 for inhibition at 10 µM not less than 50%, 0.0 for anything less.

>>> answer_label("O=C(O)CCc1cc(-c2ccc(OC(F)(F)F)cc2)ccc1OCc1ccc(OC(F)(F)F)cc1")
1.0
>>> answer_label("O=C(O)CCc1cc(-c2ccc(OC(F)(F)F)cc2)ccc1OCc1cccc(C(F)(F)F)c1")
1.0
>>> answer_label("Cc1cc(C)cc(COc2ccc(-c3ccc(OC(F)(F)F)cc3)cc2CC(=O)O)c1")
1.0
>>> answer_label("O=C(O)CCc1cc(-c2ccc(OC(F)(F)F)cc2)ccc1OCc1ccccc1C(F)(F)F")
0.0
>>> answer_label("O=C(O)/C=C/c1cc(-c2ccc(OC(F)(F)F)cc2)ccc1Oc1ccc(OC(F)(F)F)cc1")
0.0
>>> answer_label("O=C(O)CCc1cc(-c2ccc(OC(F)(F)F)cc2)ccc1OCc1ccc(-c2ccccc2)cc1")
1.0
>>> answer_label("Cc1cc(C)cc(COc2ccc(-c3ccc(OC(F)(F)F)cc3)cc2CCC(=O)O)c1")
1.0
>>> answer_label("Cc1ccc(COc2ccc(-c3ccc(OC(F)(F)F)cc3)cc2CCC(=O)O)cc1")
0.0
>>> answer_label("O=C(O)CCc1cc(-c2ccc(OC(F)(F)F)cc2)ccc1Oc1ccc(OC(F)(F)F)cc1")
0.0
>>> answer_label("O=C(O)/C=C/c1cc(-c2ccc(OC(F)(F)F)cc2)ccc1OCc1cccc(C(F)(F)F)c1")
1.0
>>> answer_label("O=C(O)CCc1cc(-c2ccc(OC(F)(F)F)cc2)ccc1OCc1ccc(F)cc1")
0.0

* * *

Measured inhibition at 1 µM, listed per entry.
target: recombinant human PAI-1 (Homo sapiens); assay: Test Example 2: Human PAI-1 Inhibitory Activity (pH 7.4 HEPES buffer, 10 minutes incubation with two-chain tPA); assay type: biochemical; design: purchased Molecular Innovations, Inc; settings: read-out: Inhibition Rate of PAI-1 Activity (%)
readout_type: inhibition at 1 µM

>>> measurement("CC(C)(C)c1ccc(Sc2cc(-c3ccc(OC(F)(F)F)cc3)ccc2/C=C\\C(=O)O)cc1 [Compound 529]")
"94%"
>>> measurement("CCCOc1ccc(N(Cc2ccc(C(C)(C)C)cc2)C(=O)C(=O)O)c(-c2ccc(OC(F)(F)F)cc2)c1 [Compound 198]")
"33%"
>>> measurement("O=C(O)COc1ccc(-c2ccc(OC(F)(F)F)cc2)cc1Oc1ccc(OCc2ccccc2)cc1 [Compound 492]")
"> 99%"
>>> measurement("CC(C)(C)c1ccc(Oc2cc(-c3ccc(Cl)cc3)ccc2OCC(=O)O)cc1 [Compound 457]")
"63%"
>>> measurement("CCCCOc1ccc(-c2ccc(OCC(=O)O)c(Oc3ccc(C(C)(C)C)cc3)c2)cc1 [Compound 468]")
"86%"
>>> measurement("CCCCCOc1cc(-c2ccc(OC(F)(F)F)cc2)ccc1N(CCCCc1ccccc1)C(=O)C(=O)O [Compound 367]")
"52%"
>>> measurement("CCCCC1CCC(Oc2ccc(-c3ccc(OC(F)(F)F)cc3)cc2N(CCCCc2ccccc2)C(=O)C(=O)O)CC1 (stereo not drawn) [Compound 637]")
"80%"
>>> measurement("O=C(O)/C=C/c1cc(-c2ccc(OC(F)(F)F)cc2)ccc1OCCCCCOc1ccc(-c2ccc(OC(F)(F)F)cc2)cc1/C=C/C(=O)O [Compound 543]")
"73%"
>>> measurement("COc1ccc(-c2ccc(OCC(=O)O)c(Oc3ccc(C(C)(C)C)cc3)c2)cc1 [Compound 445]")
"12%"
>>> measurement("CC(C)(C)c1ccc(Oc2cc(-c3cc(Cl)ccc3Cl)ccc2OCC(=O)O)cc1 [Compound 455]")
"93%"
>>> measurement("CC(C)(Oc1cc(-c2ccc(OC(F)(F)F)cc2)ccc1OCCCCc1ccccc1)C(=O)O [Compound 116]")
"15%"
>>> measurement("CC(C)(C)c1ccc(COc2cc(Oc3ccc(OC(F)(F)F)cc3)ccc2CCC(=O)O)cc1 [Compound 78]")
"21%"
>>> measurement("CC(C)(C)c1cccc(Oc2ccc(-c3ccc(OC(F)(F)F)cc3)cc2OCC(=O)O)c1 [Compound 439]")
"44%"
>>> measurement("O=C(O)CCCCCCCCOc1ccc(-c2ccc(OC(F)(F)F)cc2)cc1N(CCCCc1ccccc1)C(=O)C(=O)O [Compound 646]")
"38%"
>>> measurement("CC(C)(Oc1c(Oc2ccc(C(C)(C)C)cc2)cccc1-c1ccc(OC(F)(F)F)cc1)C(=O)O [Compound 251]")
"34%"
>>> measurement("CCCCCOc1ccc(-c2ccc(OC(F)(F)F)cc2)cc1N(CCCSc1ccccc1)C(=O)C(=O)O [Compound 357]")
"69%"
>>> measurement("CC(C)(C)c1ccc(COc2ccc(N3CCN(c4ccc(OC(F)(F)F)cc4)CC3)cc2/C=C/C(=O)O)cc1 [Compound 418]")
"73%"
>>> measurement("CC(C)(C)c1ccc(Sc2cc(-c3ccc(OC(F)(F)F)cc3)ccc2C(=O)C(=O)O)cc1 [Compound 548]")
"95%"
>>> measurement("O=C(O)CCc1cc(-c2ccc(OC(F)(F)F)cc2)ccc1OCCCCc1ccccc1 [Compound 102]")
"28%"
>>> measurement("CCCCCOc1ccc(-c2ccc(OC(F)(F)F)cc2)cc1N(CCCCC)C(=O)C(=O)O [Compound 366]")
"46%"
>>> measurement("CC(C)(C)c1ccc(Oc2ccc(-c3ccc(OC(F)(F)F)cc3)cc2OCC(=O)O)cc1 [Compound 302]")
"27%"
>>> measurement("CCCCCCCCCCN(C(=O)C(=O)O)c1ccc(-c2ccc(OC(F)(F)F)cc2)cc1 [Compound 669]")
"> 99%"
>>> measurement("O=C(O)CC(=O)N(Cc1ccccc1)c1ccc(-c2ccc(OC(F)(F)F)cc2)cc1F [Compound 602]")
"9%"
>>> measurement("CC(C)(C)c1ccc(Oc2cc(-c3ccc(C(C)(C)C)cc3)ccc2/C=C/C(=O)O)cc1 [Compound 495]")
"98%"
>>> measurement("CC(C)(C)c1ccc(Oc2cc(-c3ccc(OC(F)(F)F)cc3)ccc2NCC(=O)O)cc1 [Compound 442]")
"83%"
>>> measurement("CC(C)(C)c1ccc(CN(C(=O)C(=O)O)c2cc(C(F)(F)F)ccc2-c2ccc(OC(F)(F)F)cc2)cc1 [Compound 168]")
"33%"
>>> measurement("O=C(O)/C=C/c1ccc(-c2ccc(OC(F)(F)F)cc2)cc1Sc1ccccc1 [Compound 528]")
"51%"
>>> measurement("CC(C)(C)c1ccc(Oc2ccc(Oc3ccc(OC(F)(F)F)cc3)cc2CCC(=O)O)cc1 [Compound 100]")
"29%"
>>> measurement("CCCCCOc1ccc(-c2ccc(OC(F)(F)F)cc2)cc1N(CCCCc1ccc(Cl)cc1)C(=O)C(=O)O [Compound 384]")
"91%"
>>> measurement("CCCCCCC(Oc1cc(-c2ccc(OC(F)(F)F)cc2)ccc1Oc1ccccc1)C(=O)O (stereo not drawn) [Compound 322]")
"69%"
